Below, each entry is listed with its recorded inhibition.
test: blockers of ER-stress CHOP reporter expression – cell-based, unfolded protein response, luciferase reporter, primary screen (AID 2732); details: CHO-K1 CHOP-promoter luciferase, tunicamycin-induced, 15-18 h; at 10 µM; stronger effect = higher value;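 also: 0% = tunicamycin plus vehicle and 100% = wells without tunicamycin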
Among all 220,000 compounds or so, about 8,200 (3.7%) were called active. The list comes from a sample in which actives are over-represented; it also holds close analogues and randomly drawn compounds.
assayEndpoint: inhibition (%)

- O=C(O)c1ccccc1OCc1ccccc1Cl: -5.39
- COc1ccc(Cl)cc1C(=O)NNC(=O)c1nc2nc(C)cc(C)n2n1: 11.4
- O=C(CCl)Nc1ccc(Sc2ccc(NC(=O)CCl)cc2)cc1: 106
- COc1ccc(OCCC(=O)c2ccc(OC)cc2)cc1: -4.29
- CC1(C)CC(=O)C=C(Nc2ccccc2)C1: 5.42
- CC(=O)c1ccc(NC(=O)Nc2ccc([N+](=O)[O-])cc2C)cc1: 51.8
- Cc1cc(C)cc(N(CC(=O)NCC2CCCO2)S(=O)(=O)c2c(C)noc2C)c1 (stereo not given): 23.4
- COCCn1nnnc1C(c1ccccc1Cl)N1CCN(c2ccccc2OC)CC1 (stereo not given): 81.6
- COc1ccc2cc1Oc1ccc(cc1)C[C@H]1c3cc(c(OC)cc3CCN1C)Oc1c(O)c(OC)cc3c1[C@H](C2)N(C)CC3: -41.5
- COc1ccccc1C(c1nnnn1C(C)(C)C)N1CCN(Cc2ccccc2)CC1 (stereo not given): -9.46
- Cc1cnc(NC(=O)CSc2c(Cl)cccc2Cl)s1: 74.4
- O=S(=O)(c1cccc(-c2nnc3n2CCCCC3)c1)N1CCOCC1: 7.35
- Cc1ccc(S(=O)(=O)N2CCN(Cc3cccc(C)c3O)CC2)cc1: 83
- S=C(NNC(=S)NC1CC2C=CC1C2)NC1CC2C=CC1C2 (stereo not given): 9.31
- COc1cc(NC(=O)Nc2ccc(C)cc2)cc([N+](=O)[O-])c1: 71.2
- CCOC(=O)C1CCCN(C(=O)CN(c2ccc(OC)cc2)S(=O)(=O)c2c(C)noc2C)C1 (stereo not given): 10.8
- C=CCn1cc(-c2cccc(C(F)(F)F)c2)cc(C#N)c1=O: 5.76
- COC(=O)c1ccc(NC(=O)Nc2ccc(C)cc2)cc1: 26.6
- O=C(N/N=C/c1ccccn1)c1ccc(S(=O)(=O)N2CCCCCC2)cc1: -0.54
- Cc1ccc(NC(=O)CC(=O)Nc2ccc(C)cc2)cc1: 20.6
- COc1cccc(N2C(=O)CC(N3CCc4ccccc4C3)C2=O)c1 (stereo not given): -8.87
- CC(NC(=O)C(C)(C)C)C(c1cccs1)N1CCN(Cc2ccccc2)CC1 (stereo not given): -20.7
- COc1cc(NC(=O)c2cncc(-c3ccc(C#N)cc3)c2)cc(C(=O)Nc2cccc(C(F)(F)F)c2)c1: 22.1
- OCC1(Cc2ccccc2C(F)(F)F)CCN(Cc2ccncc2)CC1: 1.13
- N#CC(C(=O)c1ccc(S(=O)(=O)N2CCCCCC2)cc1)c1nc2ccccc2[nH]1 (stereo not given): 101
- O=S(=O)(c1ccc(F)cc1)N1CC=C(c2ccccc2)CC1: 5.87
- CC(C)(C)c1cc(C(=O)NN)n(Cc2ccc(Cl)cc2Cl)n1: -7.9
- Cc1cnc(NC(=O)CSc2nnc(C)s2)s1: 22.4
- CC(C)(CCl)C(=O)Nc1ccc(Sc2ccc(F)cc2)cc1: 68
- O=C(O)COCC(=O)NCc1csc2ccc(Cl)cc12: 1.58
- N#C/C(=C\c1ccc(-c2cccc([N+](=O)[O-])c2)o1)C(=O)NCCN1CCOCC1: 27.9
- O=c1c2ccccc2cnn1Cc1n[nH]c(=S)n1-c1ccccc1F: 5.73
- COc1ccc(C(=O)C2CCCN(C(=O)c3cnsn3)C2)c(C)c1 (stereo not given): 1.06
- O=C(NCc1ccccc1)c1ccc(CNc2c(N3CCCC3)c(=O)c2=O)cc1: 3.8
- CN(c1ccccn1)c1ncnc2[nH]ncc12: 16.3
- COc1ccc(CCN2C(=O)N(c3ccc(OC)cc3)C(=O)C2CC(=O)Nc2ccc(OC)cc2)cc1 (stereo not given): -32.7
- COc1ccc(C(=O)Nc2ccc(CN3CCOCC3)cc2)cc1: -29.9
- C=CCn1c(SCn2nnc3ccccc3c2=O)nnc1-c1ccc(Cl)cc1: 17.8
- Nc1nc(NC(=O)/C=C/c2ccc(F)cc2)nn1-c1ccccc1: 18.8
- O=C(Nc1ccc(CSc2ccccc2)cc1)c1ccc(CN2CCOCC2)cc1: 79.5
- COc1ccc(/C=N/NC(=O)Cn2cc(C(F)(F)F)ccc2=O)cc1: -10.7
- Cc1cc(C(=O)NNS(=O)(=O)c2ccccc2C(F)(F)F)nn1C(C)(C)C: 14.2
- Cc1ccc(SCC(=O)Nc2ncc(C)s2)cc1: 4.03
- O=S(=O)(c1ccc(F)cc1)N1CCN(Cc2ccccc2C(F)(F)F)CC1: 88
- CCN(CC)C(=O)Oc1ccc(Br)cc1C(=O)Nc1ccc(F)c(Cl)c1: -9.25
